Please go through the items and note down their TGI.
- System: CAKI-1 renal
- test_name: NCI tumour cell line growth inhibition, 48 h

Record excerpt, results attached:
• O=C(/C=C/c1ccc(C(F)(F)F)cc1)c1c([O-])on[n+]1-c1ccccc1 = 0.879 µM
• O[C@H]1[C@H](O)[C@@H](O)[C@@]2(O)CC[C@@H]1N2 = > 100 µM
• COC(=O)c1ccccc1NC(=NC1CCCCCC1)NS(=O)(=O)c1ccc(C)cc1 = > 100 µM
• CCOC(=O)C1(C(=O)OCC)C[C@@H](C)[C@@H](O)C1 = > 100 µM
• CC(C)CC(=O)NC(C(=O)NC(C(=O)NC(CC(C)C)C(O)CC(=O)NC(C)C(=O)NC(CC(C)C)C(O)CC(=O)O)C(C)C)C(C)C (stereo not given) = > 100 µM

Hi, could you look up TGI for each item in my list?
1. O=C(OC1CCC2OOC1O2)c1ccc([N+](=O)[O-])cc1 (stereo not given)
2. COc1ccc(NC(=O)CC/C(CC(=O)c2ccco2)=N/NC(N)=S)cc1
3. CC(N)(/C=C/c1ccccc1)C(=O)O (stereo not given)
4. COC(=O)C1=COC(C)C2CN3CCc4c([nH]c5cc(OC)c(OC)cc45)C3CC12 (stereo not given)
5. N#C[Se]CCN1C(=O)C2C(C1=O)[C@H]1C=C[C@@H]2S1 (stereo not given in full)

> 100 µM
> 100 µM
> 100 µM
> 100 µM
3.39 µM

* * *

- Tested on: RPMI-8226 leukemia
- test_name: NCI tumour cell line growth inhibition, 48 h
measured_attribute: GI50

* COc1ccc(Nc2cc(C)nc(NCc3ccccc3)n2)cc1 | 1810 nM

Would you mind listing GI50 for each of the following compounds?
1. C[C@@H](NC(=O)/C(C#N)=C/c1ccc([N+](=O)[O-])cc1)c1ccccc1
2. Cc1cc(Nc2ncc3c(n2)N(C)C(=O)N(c2cc(NC(=O)c4cccc(C(F)(F)F)c4)ccc2C)C3)n(C)n1
3. Cn1nc(C(F)(F)F)cc1-c1c[nH]c(OCc2ccc(Cl)cc2)c(-c2ccc(Cl)c(C(F)(F)F)c2)c1=O
4. CC[C@@]1(O)C(=O)OCc2c1cc1n(c2=O)Cc2cc3cccc([N+](=O)[O-])c3nc2-1
5. Cc1ccc2c(c1)c(Sc1ccc(C(=O)NO)cc1)c1n2CN(C)CC1
6. O=C([O][Hg][CH2]C1OCCOC1[CH2][Hg][O]C(=O)c1ccccc1)c1ccccc1 (configuration not stated)

1. 2230 nM
2. 641 nM
3. 547 nM
4. 1710 nM
5. 1100 nM
6. 7500 nM

* * *

- Test system: HOP-62 NSCLC
- test_name: NCI tumour cell line growth inhibition, 48 h
measured_attribute: TGI

Study these solved cases before continuing.
* COc1ccc(NC(=O)CC/C(CC(=O)c2ccco2)=N/NC(N)=S)cc1 | > 100 µM
* C=C1C(=O)O[C@H]2[C@H]1CC/C(C=Nc1c(N)cc(C(F)(F)F)cc1C(F)(F)F)=C\CC[C@@]1(C)O[C@@H]21 | 4.19 µM
* CCCCC(C(=O)CCC(=O)Nc1ccc(Cl)c(Cl)c1)C(=O)C(C)C (centres undefined) | > 100 µM
* COc1cc(-c2oc3c(OC)cc(OC)c(O)c3c(=O)c2OC)cc(OC)c1OC | 6.62 µM

Dear reader, for each entry below, please note its TGI.
1. Cc1ccc(-c2n[nH]c(=O)n2NC(=O)c2ccccc2C(=O)O)cc1
2. CCOC(=O)NC/C=C/COC1CCCCO1 (centres undefined)
3. COc1cc2c(cc1OC)CC(=O)Nc1cc(OC)c(OC)cc1CC2

1. > 100 µM
2. > 100 µM
3. > 100 µM

Quick one: give me TGI for each item below, same order please.
1. N#CCCN(CCC#N)c1ccc(/C=C(\NC(=O)c2cc([N+](=O)[O-])ccc2Cl)C(=O)Nc2ccccc2)cc1
2. Cn1cc(C2=C(c3c4n(c5ccccc35)CCC(CN)C4)C(=O)NC2=O)c2ccccc21 (centres undefined)

1. > 100 µM
2. 6.62 µM

* * *

- Test system: HCT-116 colon
- test_name: NCI tumour cell line growth inhibition, 48 h
measured_attribute: TGI

Completed entries (count: 4):
• CCN(CC)CCN(C(=Nc1ccccc1)N1CCCCC1)c1ccccc1 = 3.35 µM
• CCOC(=O)Cc1csc(Nc2ccc(OCC)cc2)n1 = > 100 µM
• CCCCCCn1c(-c2ccc(C(=O)O/N=C(\N)c3ccc4ccccc4c3)cc2)nc(-c2ccccc2)c1-c1ccccc1 = > 100 µM
• C=CCN1C[C@H](C)N([C@@H](c2ccc(C(=O)N3CCCCC3)cc2)c2cccc(OC)c2)C[C@H]1C = > 100 µM

Now let's try a different one.
Which value of TGI has been reported for CN(C)CCCNc1ncnc2c1ncn2C1OC(CO)C(O)C1O (stereo not given) in the records?
> 100 µM

* * *

- Test system: OVCAR-5 ovarian
- test_name: NCI tumour cell line growth inhibition, 48 h
measured_attribute: TGI

Reference set (5 entries):
• C(=N\Nc1ccccc1)/c1nc2ccccc2nc1/C=N/Nc1ccccc1 = 84.9 µM
• O=C(O)c1cc(=O)c2c(OCC(O)COc3cccc4oc(C(=O)O)cc(=O)c34)cccc2o1 = > 100 µM
• CCC1CCN=C(NS(=O)(=O)c2cc(C)c(Cl)cc2S)N1 (centres undefined) = 49.9 µM
• COc1ccc(Sc2nc3cc(N)cc(N)c3nc2-c2ccccc2)cc1 = > 100 µM
• OC[P+](CO)(CO)C12CC3CC(CC(C3)C1)C2 = > 100 µM

Could you tell me TGI for each of these compounds? They are listed below.
1. O=C(c1ccccc1)C(c1ccccc1)C1(O)C(=O)Nc2ccc([N+](=O)[O-])cc21 (centres undefined)
2. CCOC(=O)c1cc2c3c(c(C(C)=O)c(O)c2[nH]1)N(C(C)=O)CC3
3. O=C(O)c1cc2c(cc1CC(Cc1ccc3c(c1)CCCC3)C(=O)O)CCCC2 (centres undefined)
4. O=C(NNC1=NCCCCN1)Nc1ccc(Cl)cc1
5. Cc1ccc([N+](=O)[O-])cc1S(=O)(=O)Nc1ccc(C2=NOC(c3cccs3)C2)cc1 (centres undefined)
6. O=[N+]([O-])c1ccc(Oc2c(Cl)cc(S(=O)(=O)/N=C(\NO)Nc3ccc(Cl)cc3)cc2Cl)c(Cl)c1
7. COc1cc2ncnc(Nc3cccc(Cl)c3F)c2cc1OC(=O)N1CCN(C)C[C@H]1C

> 100 µM
> 100 µM
> 100 µM
> 100 µM
> 100 µM
35.5 µM
> 90.8 µM

Quick one: give me TGI for each item below, same order please.
1. C=C1CCCC(C)(C)C1CCC1(C)CCC(C(C)C(=O)OC)OO1 (centres undefined)
2. COc1ccc(NC(=O)CC/C(CC(=O)c2ccco2)=N/NC(N)=S)cc1

["> 23.1 µM", "> 100 µM"]

* * *

Answer each item with its documented TGI.
- System: CAKI-1 renal
- test_name: NCI tumour cell line growth inhibition, 48 h

// solved cases for TGI follow
* O=C1NC(=O)C(C(=O)C(=O)Nc2ccc(Cl)cc2Cl)C(=O)N1 | > 100 µM
* COc1ccc(Nc2cc(C)nc(NCc3ccccc3)n2)cc1 | 17.2 µM
* OCCCNc1ccnc2cc(Cl)ccc12 | > 100 µM
* COc1cc2cc(C(=O)Nc3cc4n(n3)-c3ccccc3C4)[nH]c2c(OC)c1OC | 6.3 µM

Here's the next entry for you.
TGI lookup needed for [Cl][Hg][c]1ccc(Cl)s1 , thanks.
3.29 µM

* * *

- Test system: T-47D breast
- test_name: NCI tumour cell line growth inhibition, 48 h
measured_attribute: TGI

Solved cases below.
• Cc1cc(Nc2ncc3c(n2)N(C)C(=O)N(c2cc(NC(=O)c4cccc(C(F)(F)F)c4)ccc2C)C3)n(C)n1 = 2.24 µM
• O=C(SC1=NCCN1)c1cccc2ccccc12 = > 100 µM
• O=C(CC(C(=O)c1cccs1)c1ccsc1)c1ccccc1 (stereo not given) = > 100 µM
• [N-]=[N+]=Nc1c(Cl)c(Cl)nc2ccccc12 = > 100 µM
• O=C(/C(=C/c1ccc([N+](=O)[O-])cc1)SCc1ccc(Cl)cc1)c1ccc(F)cc1 = 19.3 µM
• Cc1ccc(N=NC(=Nc2ccc(Cl)cc2)c2ccc(N(CCC#N)CCC#N)cc2)cc1 = > 100 µM
• N/C(=N/N=C/c1ccccc1)N/N=C\c1ccccc1 = > 100 µM
• CC(=O)Nc1c(I)c(NC(C)=O)c(I)c(C(=O)O)c1I = > 100 µM

Parameters: items (list). Returns: TGI for each item.
1. C[C@]12CC[C@H]3[C@@H](CC=C4C[C@@H](O)CC[C@@]43C)[C@@H]1C/C(=C/c1ccccc1)[C@@H]2O
2. C[C@]12CC[C@@H]3c4cc(OC(F)F)c(OS(N)(=O)=O)cc4CC[C@H]3[C@@H]1CC[C@@H]2OS(N)(=O)=O

1: > 59.1 µM; 2: 31.7 µM

These measurements were taken from PubChem BioAssay (NCI).
